- Study target: human M4 muscarinic acetylcholine receptor (Homo sapiens, UniProt P08173)
- Sequence (P08173 whole entry): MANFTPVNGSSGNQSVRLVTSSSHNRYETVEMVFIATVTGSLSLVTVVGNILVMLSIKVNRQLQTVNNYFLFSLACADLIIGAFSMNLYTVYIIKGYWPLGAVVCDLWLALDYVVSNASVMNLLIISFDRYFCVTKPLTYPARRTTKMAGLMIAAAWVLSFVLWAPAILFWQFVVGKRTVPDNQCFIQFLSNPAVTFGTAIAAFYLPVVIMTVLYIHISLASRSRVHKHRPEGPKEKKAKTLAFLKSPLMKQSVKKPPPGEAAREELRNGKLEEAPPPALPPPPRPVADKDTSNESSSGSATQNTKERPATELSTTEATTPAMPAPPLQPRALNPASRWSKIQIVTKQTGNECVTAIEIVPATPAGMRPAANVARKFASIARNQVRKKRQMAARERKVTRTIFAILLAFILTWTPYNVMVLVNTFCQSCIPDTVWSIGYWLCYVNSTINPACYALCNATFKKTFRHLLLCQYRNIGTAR
- Assay: human FLIPR-based M4 PAM assay, CHO-K1 cells stably transfected with human M4 receptor and chimeric G-protein Gαqi5
- Condition description: inflection point (IP) of dose response curve; acetylcholine added at 20% of maximum response; CHO-K1 human M4/Gαqi5, FLIPR Tetra
pEC50: −log10 of the molar value.
Observed property: pEC50

Compound	Numeric readout
Cc1c(-c2cccnc2)ncnc1N1CCC(Oc2cccc(C#N)c2)CC1 [Example 244]	6.34
COc1ccc(OC2CCN(c3nnc(C#N)cc3C)CC2)cn1 [Example 258]	7.14
COc1ccc(OC2CCN(c3nnc(C(=O)NCc4ccccc4C#N)cc3C)CC2)cn1 [Example 178]	6.14
Cc1c(Cl)nc(CO)nc1N1CCC(Oc2ccc3ncn(C)c(=O)c3c2)CC1 [Example 6]	6.01
COc1ccc(OC2CCN(c3nnc(C(=O)N[C@@H]4CCc5cc(F)ccc5C4)cc3C)CC2)cn1 [Example 184B]	6.00
CNC(=O)c1cc(C)c(N2CCC(Oc3ccc(OC)nc3)CC2)nc1C [Example 189]	5.73

(P) Cc1cc(C(=O)NCc2ccncc2)nnc1N1CC[C@@H](Oc2cccc(C#N)c2)[C@@H](F)C1 [Example 115]
(Q) COc1ccc(OC2CCN(c3nnc(C(=O)Nc4ccc(CC(F)(F)F)cc4)cc3C)CC2)cn1 [Example 190]
Exam item: Kindly compare P with Q and tell me which has the lower pEC50 figure. Reply briefly: the label of your chosen item.
Marked response: Q
(Q: 5.70, P: 7.21)
